System: 624824-186-R-J3-PDC multicell spheroids, viability
TEST PROTOCOL: Anticancer human tumor 624824-186-R-J3-PDC patient-derived colon adenocarcinoma cell line growth inhibition [PI3K]
SETUP CONDITIONS: second compound 0.1 µM; first compound 0.001 µM; stronger effect = lower value
Recorded viability, T/C, one value per entry.
Entry rule: numbers only, all in %.

| COMPOUND | TGT | PARAMETER MEASURED | TEST VALUE |
| --- | --- | --- | --- |
| CC(=O)c1c(C)c2cnc(Nc3ccc(N4CCNCC4)cn3)nc2n(C2CCCC2)c1=O + CC(Nc1ccc2c(c1)OCCn1cc(N3C(=O)OCC3C(F)F)nc1-2)C(N)=O | 624824-186-R-J3-PDC multicell spheroids, viability | viability, T/C | 99 |
| CC(C)n1nc(-c2ccc3oc(N)nc3c2)c2c(N)ncnc21 + COc1c(OCCCN2CCOCC2)ccc2c3n(c(=NC(=O)c4cnc(N)nc4)nc12)CCN3 | 624824-186-R-J3-PDC multicell spheroids, viability | viability, T/C | 80.2 |
| CC(C)n1nc(-c2ccc3oc(N)nc3c2)c2c(N)ncnc21 + Cc1nc(NC(=O)N2CCCC2C(N)=O)sc1-c1ccnc(C(C)(C)C(F)(F)F)c1 | 624824-186-R-J3-PDC multicell spheroids, viability | viability, T/C | 101 |
| CC(=O)c1c(C)c2cnc(Nc3ccc(N4CCNCC4)cn3)nc2n(C2CCCC2)c1=O + CC(Nc1ncnc2nc[nH]c12)c1cc2cccc(Cl)c2c(=O)n1-c1ccccc1 | 624824-186-R-J3-PDC multicell spheroids, viability | viability, T/C | 91.9 |
| Cn1ncnc1[C@H]1c2n[nH]c(=O)c3cc(F)cc(c23)N[C@@H]1c1ccc(F)cc1 + Cc1nc(NC(=O)N2CCCC2C(N)=O)sc1-c1ccnc(C(C)(C)C(F)(F)F)c1 | 624824-186-R-J3-PDC multicell spheroids, viability | viability, T/C | 108 |

Q) Request the reported viability, T/C associated with CC(=O)c1c(C)c2cnc(Nc3ccc(N4CCNCC4)cn3)nc2n(C2CCCC2)c1=O + Cc1nc(NC(=O)N2CCCC2C(N)=O)sc1-c1ccnc(C(C)(C)C(F)(F)F)c1
A) 104

Q) Request the reported viability, T/C associated with CC(=O)c1c(C)c2cnc(Nc3ccc(N4CCNCC4)cn3)nc2n(C2CCCC2)c1=O + COc1c(OCCCN2CCOCC2)ccc2c3n(c(=NC(=O)c4cnc(N)nc4)nc12)CCN3
A) 75.8

Q) Request the reported viability, T/C associated with Cn1ncnc1[C@H]1c2n[nH]c(=O)c3cc(F)cc(c23)N[C@@H]1c1ccc(F)cc1 + CC(Nc1ncnc2nc[nH]c12)c1cc2cccc(Cl)c2c(=O)n1-c1ccccc1
A) 96.3

---

System: 624824-186-R-J3-PDC multicell spheroids, viability
TEST PROTOCOL: Anticancer human tumor 624824-186-R-J3-PDC cell line growth inhibition [PI3K];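 further: spheroids exposed to agents for seven days before luminescence read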
SETUP CONDITIONS: curve of first compound; second compound 0.1 µM
Recorded pIC50, one value per entry.
Expect pIC50 as a plain number equal to -log10 of the molar concentration.

Examples with answers:
| COMPOUND | pIC50 |
| --- | --- |
| Cn1cnc2c(F)c(Nc3ccc(Br)cc3Cl)c(C(=O)NOCCO)cc21 + COc1c(OCCCN2CCOCC2)ccc2c3n(c(=NC(=O)c4cnc(N)nc4)nc12)CCN3 | 7.32 |
| CC1(C)CCC(Nc2ncc(C(F)(F)F)c(-c3c[nH]c4c(P(C)(C)=O)c(C#N)ccc34)n2)CN1 (stereo not drawn) + CC(Nc1ccc2c(c1)OCCn1cc(N3C(=O)OCC3C(F)F)nc1-2)C(N)=O | 5.32 |

Please examine the following record next.
Q) Request the reported pIC50 associated with Cn1ncc(Cl)c1-c1cc(C(=O)NC(CN)Cc2cccc(F)c2)sc1Cl (stereo not drawn) + CC(Nc1ncnc2nc[nH]c12)c1cc2cccc(Cl)c2c(=O)n1-c1ccccc1
A) 5.09
